target: MALT1 (Homo sapiens (Human), UniProt Q9UDY8); experiment: MALT1 enzymatic activity inhibition (fluorescence, Ac-LRSR-AMC substrate); format: biochemical; conditions: recombinant MALT1 1.5 ng/μl, Ac-LRSR-AMC 1 μM
Sequence (Q9UDY8 whole entry): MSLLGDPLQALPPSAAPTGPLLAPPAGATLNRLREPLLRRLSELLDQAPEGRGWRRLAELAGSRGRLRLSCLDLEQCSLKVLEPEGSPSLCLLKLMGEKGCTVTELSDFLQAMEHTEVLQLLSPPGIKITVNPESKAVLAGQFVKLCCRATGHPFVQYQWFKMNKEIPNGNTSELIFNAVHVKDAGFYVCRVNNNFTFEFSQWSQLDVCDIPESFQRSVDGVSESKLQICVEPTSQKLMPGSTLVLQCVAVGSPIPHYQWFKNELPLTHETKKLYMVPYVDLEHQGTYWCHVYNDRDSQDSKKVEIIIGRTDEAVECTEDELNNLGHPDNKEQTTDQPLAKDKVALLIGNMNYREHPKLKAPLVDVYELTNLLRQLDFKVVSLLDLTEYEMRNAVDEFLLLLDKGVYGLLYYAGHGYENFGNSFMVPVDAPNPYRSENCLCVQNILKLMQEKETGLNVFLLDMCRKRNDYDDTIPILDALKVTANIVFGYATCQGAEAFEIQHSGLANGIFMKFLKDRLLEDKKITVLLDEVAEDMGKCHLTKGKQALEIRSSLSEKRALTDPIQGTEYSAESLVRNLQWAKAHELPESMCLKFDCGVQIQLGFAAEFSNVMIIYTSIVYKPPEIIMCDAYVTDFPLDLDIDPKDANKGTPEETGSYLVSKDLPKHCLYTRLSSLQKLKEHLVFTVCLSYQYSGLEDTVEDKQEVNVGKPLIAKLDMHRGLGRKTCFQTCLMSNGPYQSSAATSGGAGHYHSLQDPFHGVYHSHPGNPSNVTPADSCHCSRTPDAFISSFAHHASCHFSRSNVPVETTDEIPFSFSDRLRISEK
measurement.kind: EC50

Some solved entries appear below for comparison.
[[record]]
compound = "CCCCOP(=O)(OCCCC)OCN1C(=O)CCC(N2Cc3cc(N4CCN(C(=O)CCCCCc5nc(-c6ncc(NC(=O)Nc7cnc8ccnn8c7C(C)C)cc6C)no5)CC4)ccc3C2=O)C1=O (centres unmarked) [Compound 148]"
result = "0.5 to 1 µM"

[[record]]
compound = "O=C1CCC(N2Cc3cc(N4CCN(CCCCCc5nc(-c6ncc(NC(=O)Nc7cnc8ccnn8c7C7CCCC7)cc6Cl)no5)CC4)ccc3C2=O)C(=O)N1 (centres unmarked) [Compound 79]"
result = "≤ 0.2 µM"

[[record]]
compound = "O=C1CCC(N2Cc3cc(N4CCN(CCCCc5nc(-c6ncc(NC(=O)Nc7cnc8ccnn8c7C7CCCC7)cc6F)no5)CC4)ccc3C2=O)C(=O)N1 (centres unmarked) [Compound 105]"
result = "0.2 to 0.5 µM"

[[record]]
compound = "CO[C@@H](C)c1c(NC(=O)Nc2cc(Cl)cnc2OCCNC(=O)CCOCCN2CCN(c3ccc4c(c3)CN(C3CCC(=O)NC3=O)C4=O)CC2)cnc2ccnn12 (some centres unmarked) [Compound 25]"
result = "0.2 to 0.5 µM"


Could you now consider this next compound?
INPUT: // map CC(C)c1c(NC(=O)Nc2cnc(-c3noc(CCCCCC(=O)N4CCN(c5ccc6c(c5)CN(C5CCC(=O)NC5=O)C6=O)CC4)n3)c(Cl)c2)cnc2ccnn12 (centres unmarked) [Compound 66] to recorded EC50 (system: MALT1 (Homo sapiens (Human), UniProt Q9UDY8))
OUTPUT: ≤ 0.2 µM
